The reported measurements were obtained from patent US20260242735A1.

- target.or.system: human CD33 F43V (human, UniProt P20138 18-364)
- Sequence (P20138 18-364 F43V limits assumed): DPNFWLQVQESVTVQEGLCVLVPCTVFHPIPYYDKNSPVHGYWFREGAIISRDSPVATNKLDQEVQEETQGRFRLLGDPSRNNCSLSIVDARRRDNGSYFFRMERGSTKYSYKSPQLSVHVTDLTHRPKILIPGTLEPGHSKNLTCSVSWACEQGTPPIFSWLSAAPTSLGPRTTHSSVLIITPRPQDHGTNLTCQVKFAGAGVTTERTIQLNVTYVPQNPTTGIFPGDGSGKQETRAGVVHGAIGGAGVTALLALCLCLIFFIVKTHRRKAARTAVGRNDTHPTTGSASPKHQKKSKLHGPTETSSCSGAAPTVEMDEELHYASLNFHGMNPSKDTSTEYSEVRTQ
- measurement.protocol: flow cytometry, mutant on cells, IgG
value.kind: Mean % WT Binding (% WT binding)
Unit % WT binding implied. Number only.

Query: Please report the recorded Mean % WT Binding for Refmab #1 (antibody, human IgG1, V domains shown, Tested in IgG format; human IgG1 (Absolute Antibody hP67.6, Cat. No. Ab00283-10.0); also called hP67.6) VH: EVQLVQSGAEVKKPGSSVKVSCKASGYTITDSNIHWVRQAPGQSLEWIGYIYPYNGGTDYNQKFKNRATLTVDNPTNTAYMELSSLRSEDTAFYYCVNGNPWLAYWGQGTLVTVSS VL: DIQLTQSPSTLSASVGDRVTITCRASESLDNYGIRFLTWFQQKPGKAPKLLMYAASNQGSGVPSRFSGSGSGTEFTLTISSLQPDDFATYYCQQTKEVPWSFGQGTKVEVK .
Reply: 101
